Hi there, I'd appreciate the recorded Km for every entry that follows.
Measurement Protocol: Ac-VEID-AFC hydrolysis kinetics of recombinant Casp6 variants (Michaelis-Menten)
Assay type: biochemical, human
Measurement Conditions: Ac-VEID-AFC hydrolysis, mean ± SD
State just the number; it will be interpreted in µM.

Problem: I'd like to know its Km. The molecule in question is Casp6-L200A-LS-SS: fully processed Casp6 L200A from co-expression of large and small subunits (protein, UniProt P55212 1-293, looked up, variant L200A) MSSASGLRRGHPAGGEENMTETDAFYKREMFDPAEKYKMDHRRRGIALIFNHERFFWHLTLPERRGTCADRDNLTRRFSDLGFEVKCFNDLKAEELLLKIHEVSTVSHADADCFVCVFLSHGEGNHIYAYDAKIEIQTLTGLFKGDKCHSLVGKPKIFIIQACRGNQHDVPVIPLDVVDNQTEKLDTNITEVDAASVYTAPAGADFLMCYSVAEGYYSHRETVNGSWYIQDLCEMLGKYGSSLEFTELLTLVNRKVSQRRVDFCKDPSAIGKKQVPCFASMLTKKLHFFPKSN
Result: 196

Problem: Follow-up entry: Casp6-WT: recombinant wild-type human Casp6 expressed in E. coli from full-length construct (protein, UniProt P55212 1-293, looked up, full-length, recombinant wild-type human Casp6 expressed in E. coli from full-length construct) MSSASGLRRGHPAGGEENMTETDAFYKREMFDPAEKYKMDHRRRGIALIFNHERFFWHLTLPERRGTCADRDNLTRRFSDLGFEVKCFNDLKAEELLLKIHEVSTVSHADADCFVCVFLSHGEGNHIYAYDAKIEIQTLTGLFKGDKCHSLVGKPKIFIIQACRGNQHDVPVIPLDVVDNQTEKLDTNITEVDAASVYTLPAGADFLMCYSVAEGYYSHRETVNGSWYIQDLCEMLGKYGSSLEFTELLTLVNRKVSQRRVDFCKDPSAIGKKQVPCFASMLTKKLHFFPKSN
Result: 31.2

Problem: What do we get for Casp6-K284A: Casp6 K284A alanine mutant from full-length construct, partially self-processed (protein, UniProt P55212 1-293, looked up, variant K284A, full-length, Casp6 K284A alanine mutant from full-length construct, partially self-processed) MSSASGLRRGHPAGGEENMTETDAFYKREMFDPAEKYKMDHRRRGIALIFNHERFFWHLTLPERRGTCADRDNLTRRFSDLGFEVKCFNDLKAEELLLKIHEVSTVSHADADCFVCVFLSHGEGNHIYAYDAKIEIQTLTGLFKGDKCHSLVGKPKIFIIQACRGNQHDVPVIPLDVVDNQTEKLDTNITEVDAASVYTLPAGADFLMCYSVAEGYYSHRETVNGSWYIQDLCEMLGKYGSSLEFTELLTLVNRKVSQRRVDFCKDPSAIGKKQVPCFASMLTAKLHFFPKSN ?
Result: 32.6

Problem: What about this molecule? Casp6-K284A-LS-SS: fully processed Casp6 K284A from co-expression of large and small subunits (protein, UniProt P55212 1-293, looked up, variant K284A) MSSASGLRRGHPAGGEENMTETDAFYKREMFDPAEKYKMDHRRRGIALIFNHERFFWHLTLPERRGTCADRDNLTRRFSDLGFEVKCFNDLKAEELLLKIHEVSTVSHADADCFVCVFLSHGEGNHIYAYDAKIEIQTLTGLFKGDKCHSLVGKPKIFIIQACRGNQHDVPVIPLDVVDNQTEKLDTNITEVDAASVYTLPAGADFLMCYSVAEGYYSHRETVNGSWYIQDLCEMLGKYGSSLEFTELLTLVNRKVSQRRVDFCKDPSAIGKKQVPCFASMLTAKLHFFPKSN
Result: 27.7
